- Assay overview: Pharmacokinetics in whole blood of healthy mice
- Type: in vivo, MF1 mice
- Condition info: PO 20 mg/kg, measured as Pd
Parameter measured: Cmax
Don't forget the unit after the number, please.

Cmax reading for CC(C)c1cccc(C(C)C)c1[N+]1=Cc2cccc[c]2[Pd-2]1([Cl])[P+](CC[P+](c1ccccc1)(c1ccccc1)[Pd-2]1([Cl])[c]2ccccc2C=[N+]1c1c(C(C)C)cccc1C(C)C)(c1ccccc1)c1ccccc1 (stereo not shown) : 6 nM

----------
- System: RH30 and RD cells
- Assay overview: IC50 of doxorubicin established in the cell lines tested
- Type: cell-based
- Condition info: Homo sapiens
Parameter measured: pIC50
Would you please state pIC50, meaning minus log10 of the concentration in mol/L, as a bare number?

pIC50 reading for COc1cccc2c1C(=O)c1c(O)c3c(c(O)c1C2=O)C[C@@](O)(C(=O)CO)C[C@@H]3O[C@H]1C[C@H](N)[C@H](O)[C@H](C)O1 : 6.30
